Values compiled from ChEMBL document CHEMBL1138765.

tested on: MCF7; assay: Inhibitory concentration against proliferation of MCF-7 (ER Positive) breast cancer cells; assay type: functional, cell-based; conditions: Homo sapiens
Listing of recorded pIC50 by entry.
# log scale: pIC50 equals minus log10 of the concentration in mol/L

Worked examples follow.
molecule="CC1(C)CC[C@]2(C(=O)NCCCC(=O)NCCCCCCNC(=O)CCCCC3SC[C@@H]4NC(=O)N[C@H]34)CC[C@]3(C)C(C(=O)C=C4[C@@]5(C)C=C(C#N)C(=O)C(C)(C)[C@@H]5CC[C@]43C)C2C1 (stereo partly drawn)" target_of_assay=MCF7 attribute_measured=pIC50 measurement=5.28
molecule="CC1(C)CC[C@]2(C(=O)NCCCCCCNC(=O)CCCCC3SC[C@@H]4NC(=O)N[C@H]34)CC[C@]3(C)C(C(=O)C=C4[C@@]5(C)C=C(C#N)C(=O)C(C)(C)[C@@H]5CC[C@]43C)C2C1 (stereo partly drawn)" target_of_assay=MCF7 attribute_measured=pIC50 measurement=5.48

Now, please, on to the next molecule.
*Q* Request body: readout pIC50, system MCF7, query COC(=O)[C@]12CCC(C)(C)CC1C1C(=O)C=C3[C@@]4(C)C=C(C#N)C(=O)[C@@](C)(CO)[C@@H]4CC[C@@]3(C)[C@]1(C)CC2 (stereo partly drawn) . Return the value.
*A* 7.10

---

system: MCF7; experiment: Inhibitory concentration against proliferation of MCF-7 (ER Positive) breast cancer cells; type: functional, cell-based; conditions: Homo sapiens
Listing of recorded IC50 by entry.
Numeric answer only, unit nM assumed.

Worked examples follow.
compound="COC(=O)[C@]12CCC(C)(C)CC1C1C(=O)C=C3[C@@]4(C)C=C(C#N)C(=O)[C@@](C)(COC(=O)CCCCCNC(=O)CCCC[C@@H]5SC[C@@H]6NC(=O)N[C@@H]65)[C@@H]4CC[C@@]3(C)[C@]1(C)CC2 (stereo partly drawn)" attribute_measured=IC50 unit_text=nM measurement=550
compound=COC(=O)[C@]12CCC(C)(C)C[C@H]1[C@H]1C(=O)C=C3[C@@]4(C)C=C(C#N)C(=O)C(C)(C)[C@@H]4CC[C@@]3(C)[C@]1(C)CC2 attribute_measured=IC50 unit_text=nM measurement=50

Now, please, on to the next compound.
*Q* Using the record for `CC1(C)CC[C@]2(C(=O)O)CC[C@]3(C)[C@H](C(=O)C=C4[C@@]5(C)C=C(C#N)C(=O)C(C)(C)[C@@H]5CC[C@]43C)[C@@H]2C1` , report its IC50.
*A* 160
